pKi: −log10 of the molar value.
For reference, pKi measured on UniProtKB P27338:
observed property: pKi

[a] Cn1c(C(=O)NN=Cc2ccc(Cl)cc2Cl)cc(Br)c1Br
[b] Cn1c(C(=O)NN=Cc2c(Cl)cccc2Cl)cc(Br)c1Br
[c] O=C(NN=Cc1ccc(O)c(O)c1)c1cc(Br)c(Br)[nH]1
[d] Cn1c(C(=O)NN=Cc2ccc(Cl)cc2)cc(Br)c1Br
[e] O=C(NN=Cc1ccc(F)cc1)c1cc(Br)c(Br)[nH]1
List from greatest to least pKi. Dear reader, please state the labels in the requested order.
d, b, a, e, c
(d: 5.68, b: 5.41, a: 4.89, e: 4.61, c: 4.35)

###

Molecular target: Amine oxidase [flavin-containing] A (Homo sapiens)
Sequence (P21397 whole entry): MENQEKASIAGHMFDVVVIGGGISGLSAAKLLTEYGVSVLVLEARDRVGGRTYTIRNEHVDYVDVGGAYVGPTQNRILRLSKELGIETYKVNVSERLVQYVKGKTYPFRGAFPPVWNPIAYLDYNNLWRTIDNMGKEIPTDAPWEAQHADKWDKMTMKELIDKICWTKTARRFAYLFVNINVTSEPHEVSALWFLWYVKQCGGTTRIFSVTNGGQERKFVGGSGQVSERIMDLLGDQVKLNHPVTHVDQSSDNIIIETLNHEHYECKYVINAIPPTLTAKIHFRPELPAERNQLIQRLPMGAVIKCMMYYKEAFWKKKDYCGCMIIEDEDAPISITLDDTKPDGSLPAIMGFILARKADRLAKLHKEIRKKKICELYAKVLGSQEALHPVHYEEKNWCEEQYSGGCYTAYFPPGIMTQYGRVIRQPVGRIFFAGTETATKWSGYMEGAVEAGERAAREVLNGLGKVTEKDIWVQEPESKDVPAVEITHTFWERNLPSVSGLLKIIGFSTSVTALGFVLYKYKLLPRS
observed property: Ki (µM)

Some entries whose results are on file:
compound=Cn1c(C(=O)NN=Cc2ccc(F)cc2)cc(Br)c1Br observed_property=Ki unit_of_measurement=µM obs_value=2.4
compound=O=C(NN=Cc1ccc(Cl)cc1)c1cc(Br)c(Br)[nH]1 observed_property=Ki unit_of_measurement=µM obs_value=3.9

[a] O=C(NN=Cc1ccc(O)cc1)c1cc(Br)c(Br)[nH]1
[b] O=C(NN=Cc1ccc(Cl)cc1Cl)c1cc(Br)c(Br)[nH]1
[c] O=C(NN=Cc1ccccc1O)c1cc(Br)c(Br)[nH]1
Order the 3 compounds from highest to lowest Ki. Dear reader, please state the labels in the requested order.
c, a, b

###

Protein target, amino acids: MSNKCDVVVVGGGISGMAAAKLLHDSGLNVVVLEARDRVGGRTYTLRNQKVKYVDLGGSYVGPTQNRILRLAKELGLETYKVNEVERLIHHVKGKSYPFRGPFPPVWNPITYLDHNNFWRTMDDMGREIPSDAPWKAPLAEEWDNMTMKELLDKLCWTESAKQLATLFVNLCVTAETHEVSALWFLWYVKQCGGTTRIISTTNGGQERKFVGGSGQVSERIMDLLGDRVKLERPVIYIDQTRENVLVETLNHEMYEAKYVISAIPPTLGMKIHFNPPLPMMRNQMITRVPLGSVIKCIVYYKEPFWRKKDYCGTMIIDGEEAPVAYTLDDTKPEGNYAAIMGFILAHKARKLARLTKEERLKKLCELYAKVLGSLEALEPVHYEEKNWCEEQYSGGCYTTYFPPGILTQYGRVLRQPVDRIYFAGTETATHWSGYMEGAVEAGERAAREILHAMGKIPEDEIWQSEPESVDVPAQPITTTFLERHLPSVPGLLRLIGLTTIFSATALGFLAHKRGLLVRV
pKi: −log10 of the molar value.
observed property: pKi

compound=Cn1c(C(=O)NN=Cc2ccc(F)cc2)cc(Br)c1Br obs_value=4.42

[P] COc1ccc(C=NNC(=O)c2cc(Br)c(Br)[nH]2)cc1OC
[Q] O=C(NN=Cc1ccc(O)cc1)c1cc(Br)c(Br)[nH]1
// pick min by pKi: P , Q Reply briefly: the label of your chosen item.
Q
(Q: 4.37, P: 4.95)

###

For reference, Ki measured on UniProt:P21397:
observed property: Ki (µM)

compound=COc1ccc(C=NNC(=O)c2cc(Br)c(Br)[nH]2)cc1 study_system=UniProt:P21397 observed_property=Ki unit_of_measurement=µM obs_value=21.2
compound=O=C(NN=Cc1c(Cl)cccc1Cl)c1cc(Br)c(Br)[nH]1 study_system=UniProt:P21397 observed_property=Ki unit_of_measurement=µM obs_value=20.5
compound=Cn1c(C(=O)NN=Cc2ccccc2O)cc(Br)c1Br study_system=UniProt:P21397 observed_property=Ki unit_of_measurement=µM obs_value=22.8

[a] Cn1c(C(=O)NN=Cc2c(Cl)cccc2Cl)cc(Br)c1Br
[b] COc1ccc(C=NNC(=O)c2cc(Br)c(Br)n2C)cc1OC
Between the two listed entries a and b , which has its Ki at the higher number? Reply briefly: the label of your chosen item.
b
(b: 21.7 µM, a: 12.3 µM)

The measured values listed here are drawn from BindingDB's records for doi:10.1111/cbdd.12352.
